# systemUnderTest: Na^+ Channel Site 2
# assayMethodText: In vitro radioligand binding assay, Na+ channel site 2
The entries below come with measured Ki values attached.
The response must be a number in µM with no trailing unit.

INSERT INTO results (compound, unitlabel, recordednumber) VALUES
  ('CNCCCN1c2ccccc2CCc2ccccc21 [Desipramine]', 'µM', 0.91);

Exercise: Quick check: Ki of COc1ccc(C(CN(C)C)C2(O)CCCCC2)cc1 (stereo not drawn) [Venlafaxine] ?
Solution: 12

Exercise: Quick check: Ki of N[C@@H]1CC[C@@H](c2ccc(Cl)c(Cl)c2)c2ccccc21 [Compound P] ?
Solution: 1

---

# systemUnderTest: B2 (Homo sapiens, UniProt P30411)
# Sequence (P30411 whole entry): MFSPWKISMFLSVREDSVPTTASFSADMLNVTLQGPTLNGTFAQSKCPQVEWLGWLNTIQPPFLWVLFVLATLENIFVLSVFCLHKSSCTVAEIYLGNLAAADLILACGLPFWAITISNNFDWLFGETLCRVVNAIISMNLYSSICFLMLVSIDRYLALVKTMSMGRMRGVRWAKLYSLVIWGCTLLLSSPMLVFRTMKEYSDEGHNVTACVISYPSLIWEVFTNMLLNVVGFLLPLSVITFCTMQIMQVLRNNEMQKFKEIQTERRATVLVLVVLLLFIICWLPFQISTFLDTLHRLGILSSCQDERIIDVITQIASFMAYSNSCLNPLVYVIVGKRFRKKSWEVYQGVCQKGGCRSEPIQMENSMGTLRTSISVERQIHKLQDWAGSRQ
# assayMethodText: In vitro radioligand binding assay, B2
readoutKind: pKi
The quantity pKi is defined as the negative base-10 logarithm of the molar concentration.

Exercise: Quick check: pKi of N[C@@H]1CC[C@@H](c2ccc(Cl)c(Cl)c2)c2ccccc21 [Compound P] ?
Solution: 5.82
